# System: SF-295 CNS
# Test Method Notes: NCI tumour cell line growth inhibition, 48 h
Outcome Measure: TGI

Some compounds with known TGI results, for comparison:
Record `CC(=O)C(=[N+]=[N-])C(=O)OC(C)(C)C#N` . Reported TGI: > 10 µM

Record `COc1ccccc1-n1c(-c2cc(O)ccc2C)cn2c3c(=O)[nH]c(=O)n(C)c3nc12` . Reported TGI: > 100 µM

Record `CC(=O)N1CC(Nc2ccc(OC(F)(F)F)cc2)=CC1=O` . Reported TGI: > 100 µM

Record Cc1cn(C2CCC(/C=N\O)O2)c(=O)[nH]c1=O (stereo not given) . Reported TGI: > 100 µM

State recorded TGI for all listed compounds.
1. COc1ccc(-c2csc(=Nc3ccccc3)n2CC(O)c2ccc([N+](=O)[O-])cc2)cc1 (stereo not given)
2. CCNCC(=O)O[C@]1(CC)C(=O)OCc2c1cc1n(c2=O)Cc2cc3ccccc3nc2-1
3. O=C1NC(Cc2c[nH]c3ccccc23)C(=O)N2C(C3CCCCC3)c3[nH]c4ccccc4c3C[C@@H]12 (stereo not given in full)
4. CC(=O)c1ccc(NC(=O)CSc2nnc(-c3cc(-c4ccc(C)cc4)nc4ccccc34)o2)cc1
5. O=P(O)(O)c1ccccc1 (tested in a mixture with another compound)
6. COC(=O)C(CCCC1(c2ccccc2)OCCO1)C(C)=O (stereo not given)

1: > 100 µM; 2: 4.66 µM; 3: 43.5 µM; 4: 6.08 µM; 5: > 100 µM; 6: > 100 µM

State recorded TGI for all listed compounds.
1. O=C(O)C1C(C(=O)Nc2ccc3c(c2)Cc2ccccc2-3)C2(Cl)C(Cl)=C(Cl)C1(Cl)C2(Cl)Cl (stereo not given)
2. CC1C[C@H](OC(N)=O)C(C)CC1=O (stereo not given in full)
3. CCSCC(N)C(=O)O (stereo not given)

1. > 100 µM
2. > 100 µM
3. > 100 µM

State recorded TGI for all listed compounds.
1. CC(C)c1ccccc1NC(=O)C(=O)Cc1nc2ccccc2s1
2. CCCCn1c(C)c(C(=O)OCC)s/c1=N/Nc1nc2ccccc2nc1-c1ccccc1

["> 100 µM", "> 100 µM"]

----------
# Test system: CAKI-1 renal
# Test Method Notes: NCI tumour cell line growth inhibition, 48 h
Outcome Measure: TGI

Some molecules with known TGI results, for comparison:
Record COc1ccc(C2C3C(=O)C=CC(=O)C3[C@@H]2C)cc1OC (some centres not stated) . Reported TGI: > 100 µM

Record `Cn1c(=O)cc(NCc2ccc(Cl)cc2)[nH]c1=O` . Reported TGI: > 100 µM

Record `O=S(O)CCCCCSSCCCCSSCCCCCS(=O)O` . Reported TGI: > 100 µM

Record `O=C1CCC[C@]2(CCC[C@@H](O)C2)N1` . Reported TGI: > 100 µM

Record CC(C)(C)N(Cc1ccc2c(c1)OCO2)C(=O)/C=C\S(=O)c1ccccc1 (configuration not stated) . Reported TGI: 15.1 µM

Record `Cc1cc(C)nc(NS(=O)(=O)c2ccc(Nc3c4ccccc4nc4c(C(=O)NCCCN(CCO)CCO)cccc34)cc2)n1` . Reported TGI: > 100 µM

Proceed to the following item.
Record `CCCCCCCC/C=C/CCCCCCCC1=NCC[N+]1(CCO)CCO` . Reported TGI: 8.32 µM

This collection of values is drawn from PubChem BioAssay (NCI).
